This collection of values is drawn from PubChem BioAssay (NCI).

Entries and their TGI values follow.
- Test system: COLO 205 colon
- Assay name: NCI tumour cell line growth inhibition, 48 h
Number only, in µM; omit the unit.

Sample records with TGI:
COc1ncc(C#CC(=O)c2ccccc2OC)c(OC)n1 = 4.12
COc1cccc(/C=C/C(=O)c2cc3c(N)c(C(=O)Nc4cccc(Cl)c4C)sc3nc2C)c1 = 3.63
O=c1[nH]nc2c3c(cccc13)NC(CN1Cc3ccccc3C1)=N2 = 89.7

TGI lookup needed for Cc1cc2c(C(N)=O)cccc2n1-c1nc2c(c(NCc3ccccc3)n1)CCCN2 , thanks.
0.364

----------
- Test system: ACHN renal
- Assay name: NCI tumour cell line growth inhibition, 48 h
Property measured: TGI

N#C[C@](CO)(NC(=O)OCc1ccccc1)C(F)F = > 100 µM
CCOC(=O)c1ccc(Nc2nc3ccc(C(F)(F)F)cc3nc2-c2ccccc2)cc1 = > 100 µM
C/C(=C1/N=C(c2cc([N+](=O)[O-])ccc2Cl)N(C2=CC=C(Cl)CC2)C1=O)c1cc2ccccc2oc1=O = > 100 µM
c1ccc2c(Cc3c[nH]c4ccccc34)c[nH]c2c1 = > 100 µM
CC1(C)OC[C@@]2([C@@H]3CC[C@@H](C3)C2(C)C)N1O = > 100 µM

Could you now look at the following molecule, please?
Item: CCOC(=O)C(Cc1c[nH]c2cc([N+](=O)[O-])ccc12)(NC(C)=O)C(=O)OCC Test system: ACHN renal Read-out: TGI Value: ?
> 1000 µM
